pIC50: −log10 of the molar value.
A compilation of published pIC50 results with Angiopoietin-1 receptor (Homo sapiens, UniProt Q02763).

[[record]]
molecule = "O[C@@H]1Cc2ccccc2[C@@H]1Nc1nc(-c2cnccn2)nc2ccccc12"
recorded_measurement = "≤ 5.00"

[[record]]
molecule = "CC(C)[C@H](CO)Nc1nc(-c2ccncc2)nc2ccccc12"
recorded_measurement = "≤ 5.00"


q: pIC50 for "O=C(Nc1cc(C(F)(F)F)cc(C(F)(F)F)c1)N1CCN(c2nsnc2OCc2ccncc2)CC1" ?
a: > 7.30

q: Then "COc1cc(Nc2ncnc(Nc3ccc4cn[nH]c4c3)n2)cc(OC)c1OC" ?
a: < 4.94

q: Field entry: "COc1cc(Nc2ncnc(Nc3ccc4c(c3)OCO4)n2)cc(OC)c1OC"
a: < 4.95

q: Subsequent entry: "COc1cc(Nc2ncnc(-n3c(N(C)C)nc4ccccc43)n2)cc(OC)c1OC"
a: < 4.97

q: Repeat with CC(Oc1cccnc1N1CCN(C(=O)Nc2cc(C(F)(F)F)cc(C(F)(F)F)c2)CC1)c1ccnc(N)n1 (centres unmarked)
a: > 7.30

q: Then "Cc1ccc(-c2nc(-c3ccncc3)n(CCN(C(=O)Cc3cccc4ccccc34)C3CCCC3)n2)cc1" ?
a: 5.00 to 6.00

q: Note, next up: "O=C(Nc1cc(C(F)(F)F)cc(C(F)(F)F)c1)N1CCN(c2nsnc2OCc2ccnc(N3CCOC3=O)c2)CC1"
a: ≤ 5.00

q: Another molecule to look at: "COc1cc(Nc2ncnc(N3CCCc4ccccc43)n2)cc(OC)c1OC"
a: 4.94 to 5.05

q: Another molecule to look at: "COc1ccc(-c2nc(-c3ccncc3)nn2CCN(C(=O)Nc2ccc(SC)cc2)C2CCCC2)cc1Cl"
a: ≤ 5.00

q: One more molecule: "COc1ccc(-c2nc(-c3ccncc3)nn2CCN(C(=O)Nc2ccc(Cl)cc2)C2CCCC2)cc1Cl"
a: ≤ 5.00

q: Request: "COc1cc(Nc2ncnc(Nc3ccc(NS(=O)(=O)c4ccc([N+](=O)[O-])cc4)cc3)n2)cc(OC)c1OC"
a: 5.36 to 6.14

q: And what about the molecule "COCCOc1ccc(Nc2ncnc(-n3c(N)nc4ccccc43)n2)cc1OCCOC" ?
a: < 5.00

q: Try "CCCNc1cc(COc2nsnc2N2CCN(C(=O)Nc3cc(C(F)(F)F)cc(C(F)(F)F)c3)CC2)ccn1" next.
a: 6.00 to 7.30

q: Moving on to "COc1ccc(Nc2ncnc(-n3c(N)nc4ccccc43)n2)cc1"
a: 5.14 to 5.92

q: // query: "COc1ccc(Nc2ncnc(Nc3cccc(Br)c3)n2)cc1OC"
a: < 4.95
